assay: growth effects on S. cerevisiae YJM789 – YJM789 clinical isolate, OD600, 24 h, basal, primary screen (AID 1089); details: higher = more signal, called active from +8 up or from −8 down;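 also: growth of clinical yeast isolate S. cerevisiae YJM 789 seeded 1000 cells per well; test concentration not given here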
Measurement kind: z-score
Number only, please.

// known answers, use as guide
[
  {
    "Line notation": "C=CCOC(=O)[C@@H]1[C@H]2C(=O)O[C@H](c3ccccc3)[C@H](c3ccccc3)N2[C@H](c2ccc(OCCOC(=O)[C@H]3C[C@H]4C(=O)N[C@@H](CCCC[N+](C)(C)C)C(=O)N4[C@H]3c3cccc(OCCO)c3)cc2)[C@@]12C(=O)Nc1ccc(I)cc12",
    "z-score": 0.904
  },
  {
    "Line notation": "C/C=C/[C@H](CCn1cc([C@H](O)c2ccccc2)nn1)[Si](C)(C)c1ccc(OC)cc1",
    "z-score": -0.298
  }
]

From here, focus on the item given below.
Note to self: z-score recorded for "COc1ccc([Si](C)(C)[C@H]2[C@H](CC(=O)N3Cc4ccccc4C[C@H]3CO)O[C@@]3(C(=O)N(Cc4cccc(I)c4)c4ccccc43)[C@@H]2C)cc1" was -0.413

Data origin, for the record: PubChem BioAssay
